Form field: Kd (one value per entry).
- Test system: VEGF-121 (Homo sapiens), P15692-9
- Sequence: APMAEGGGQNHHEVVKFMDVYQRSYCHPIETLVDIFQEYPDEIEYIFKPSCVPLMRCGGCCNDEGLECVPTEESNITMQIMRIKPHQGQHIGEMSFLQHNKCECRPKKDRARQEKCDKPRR
- experiment: filter
- setupConditions: P=Nap-dU; C3 spacer at 20
endpointName: Kd (nM)

orderedResidues | reportedValue
AGCCGTTCAAGTGCTTGTAGATTTAAATGGA [4867-31_99] | 0.22
CCCTCCATCAGCCGTTCAATGCTTGTAGGATTTAAATGGAATTGGAGGA [4867-15_43] | 9.2

---

- testedTarget: PDGF-BB (platelet-derived growth factor BB) (Homo sapiens) (UniProt P01127)
- Sequence (P01127 82-190): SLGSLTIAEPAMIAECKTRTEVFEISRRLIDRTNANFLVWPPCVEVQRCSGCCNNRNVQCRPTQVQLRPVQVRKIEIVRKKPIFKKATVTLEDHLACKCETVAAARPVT
- experiment: filter
- setupConditions: VEGF-2Heg-PDGF; NapdU, BndU

orderedResidues | Kd, pM
CCGTTCAAGTGCTTTAGATTTAAATGGTTACGTTACACGCGTTTATAGC [4149-8_315] | 119

---

- testedTarget: PDGF-BB (platelet-derived growth factor BB) (Homo sapiens)
- experiment: filter
- setupConditions: VEGF-2Heg-PDGF; NapdU, 2'-OMe
endpointName: Kd (pM)

orderedResidues | reportedValue
CCGTTCAAGTGCTTGTAGGATTTAAATGGCGACAGCATGTATGCACATCT [5169-4_97] | 3.7

---

- testedTarget: PDGF-BB (platelet-derived growth factor BB) (Homo sapiens)
- experiment: filter
- setupConditions: NapdU at P; 2'-OMe 1,7,15,16,18,20,21
endpointName: Kd

orderedResidues | endpointName | reportedValue
CGACAGCATGTATGCACATCT [5169-4_92] | Kd | 5.2 pM

---

- Tested on: VEGF-121 (Homo sapiens), P15692-9
- Sequence: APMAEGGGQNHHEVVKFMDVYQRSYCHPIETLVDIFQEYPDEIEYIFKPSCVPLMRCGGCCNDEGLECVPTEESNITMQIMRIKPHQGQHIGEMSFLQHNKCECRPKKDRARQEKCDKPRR
- experiment: filter
- setupConditions: C3 spacer at 17; all P are NapdU; C3 at G17
pKd: −log10 of the molar value.
endpointName: pKd

orderedResidues | endpointName | reportedValue
AGCCGTTCAAGTGCTTTAGGATTTAAATGGA [4867-31_98] | pKd | 10.00

---

- System: VEGF-121 (Homo sapiens), P15692-9
- Sequence: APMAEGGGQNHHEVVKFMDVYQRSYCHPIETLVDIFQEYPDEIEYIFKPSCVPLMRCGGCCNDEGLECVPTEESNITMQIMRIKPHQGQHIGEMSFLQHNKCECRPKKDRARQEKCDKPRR
- experiment: filter
- setupConditions: P=Nap-dU; 2'-OMe G13

orderedResidues | Kd
AGCCGTTCAAGTGCTTGTAGGATTTAAATGGA [4867-31_77] | 6.64 nM

---

- testedTarget: PDGF-BB (platelet-derived growth factor BB) (Homo sapiens)
- experiment: filter
- setupConditions: all Z are BndU (5-(N-benzylcarboxamide)-2'-deoxyuridine), rest DNA; SB18T, 37 C, Zorbax partition

orderedResidues | Kd [nM]
ATCTCTTACGACTACGTTACACGCGTTTATAGCGTCAACCCGAGTGAACA [4149-8_2] | 0.05
